Test system: OVCAR-8 ovarian
Assay: NCI-60 one-dose screen, 48 h
Conditions: 10 µM unless noted
About 83,000 compounds went through this panel and 20% of them were active in at least one assay; those are over-represented in the sample as a whole. Calls of active or inactive are those of the source. How the source made its calls: active means growth percent below 10; inactive means the rest.
// allowed return values: TRUE for active, FALSE for inactive

Take a look at these entries with their results.
Compound | Subject Of Test | Assigned Label
O=C1Nc2ccccc2/C1=C/c1cccn1CCCCCn1c2ccccc2c(=O)c2ccccc21 | OVCAR-8 ovarian | FALSE
Nc1c(C(=O)Nc2ccncc2)sc2nc3c(cc12)CCCCCCCC3 | OVCAR-8 ovarian | TRUE
Cc1ccc(C(=O)c2ccc(CC(=O)N=Nc3c(O)[nH]c4ccc(OC(F)(F)F)cc34)n2C)cc1 | OVCAR-8 ovarian | FALSE
COc1ccc(S(=O)(=O)Nc2cc(Sc3cccc4cccnc34)c(O)c3ccccc23)cc1 | OVCAR-8 ovarian | TRUE
COc1ccc(C2=C(CN)C(O)NC(=NCC(=O)c3ccc4ccccc4c3)N2)cc1 (centres undefined) | OVCAR-8 ovarian | FALSE
Cc1c(CC(=O)OCCO)cc(-c2ccc(Cl)cc2)n1-c1ccccc1 | OVCAR-8 ovarian | FALSE
COc1ccc(/C=C/C(=O)c2cc3c(N)c(C(=O)Nc4ccccc4Cl)sc3nc2C)cc1 | OVCAR-8 ovarian | FALSE
CCN(CC)CCCN1C(=O)c2c(c(C)c3c(oc4cc(OC)ccc43)c2C)C1=O | OVCAR-8 ovarian | FALSE
COc1ccc(-c2nn3c(-c4cc(F)c(Cl)cc4Cl)nnc3s2)cc1 | OVCAR-8 ovarian | FALSE
O=C(NNc1ccccc1)c1ncc[nH]1 | OVCAR-8 ovarian | FALSE

Q: Query: recorded result category for CCOC(=O)C1=C(C)N=C2SC=C(c3ccc(F)cc3)N2[C@H]1c1cn(-c2ccccc2)nc1-c1ccc(Cl)cc1 in this test
Result: FALSE

Q: // return assay outcome for Cc1ccc(S(=O)(=O)Nc2cc(Sc3ccccc3)c(O)c3ccccc23)cc1
Result: TRUE

Q: Dear colleague, could you share the recorded outcome for CC(=O)c1c(C)nc2ccccc2c1/C=C/c1cccc(C)c1 when you have a moment?
Result: FALSE

Q: Please share the test call associated with O=C1/C(=C/c2ccc(F)c(F)c2)CN(C(=O)C(Cl)Cl)C/C1=C\c1ccc(F)c(F)c1 .
Result: TRUE

Q: Would you mind telling me which call this test gave C=C(C)[C@@H]1CC[C@]2(C(=O)N3CCN(C)CC3)CC[C@]3(C)[C@H](CC[C@@H]4[C@@]5(C)CC(CCCNC(C)=O)(CCCNC(C)=O)[C@H](OC(C)=O)C(C)(C)[C@@H]5CC[C@]43C)[C@@H]12 ?
Result: FALSE

Q: What outcome does the record of this test show for CCCN1C(=O)/C(=c2\sc3n(c2=O)NC2C(N=3)N(CC)C(=O)N2CC)c2ccccc21 (centres undefined) ?
Result: FALSE

Q: Entry O=C(CN1C(=O)S/C(=C\C(Cl)=C\c2ccccc2)C1=O)NCCCn1ccnc1 : call = ?
Result: FALSE

Q: Per the assay record, what outcome was assigned to CCOC(=O)c1cnn(CC(O)CC)c1NC(=O)NCc1ccccc1C(F)(F)F (centres undefined) ?
Result: FALSE

Q: Which outcome was assigned to CS(=O)(=O)Nc1cc(-c2ccc3ncnc(Nc4ccc(F)c(Cl)c4)c3c2)cnc1Cl in this test?
Result: FALSE

---

Tested on: HOP-62 NSCLC
Test: NCI-60 one-dose screen, 48 h (100 = growth as untreated, 0 = no growth, -100 = all killed)
Settings: 10 µM unless noted
This is part of a sample that, as a whole, favours compounds with a hit. Of some 83,000 tested, about 20% had one in any assay.
Mark Condition met for reported growth of 90% or greater; mark Condition not met for anything smaller.

For orientation, consider the following solved cases.
Compound | Assigned Label
COc1cc(OC)cc(-c2ccc(-c3ccc(C(=N)N)cn3)s2)c1 | Condition not met
COc1ccc(/C(C)=C(\c2ccc(OCCN3CCOCC3)cc2)c2ccc(OC(=O)C3CCCCC3)cc2)cc1 | Condition met
COc1cc(C=O)ccc1Oc1ccc([N+](=O)[O-])cc1[N+](=O)[O-] | Condition met
CC1=C2[C@@H](CC1)[C@]1(C)O[C@@](C(C)C)(C[C@H]1OC(=O)CO)[C@H]2OC(=O)C1CC1c1ccccc1 (some centres undefined) | Condition not met

Q: Exam item: decide whether the reported growth for N=c1c2c(-c3ccccc3)c(-c3ccccc3)oc2ncn1NC(=O)c1cccnc1 is at least 90%.
Result: Condition met

Q: Exam item: decide whether the reported growth for O=C(CCN1CCOCC1)Nc1cccc(-n2cc(-c3ccncc3)c(-c3ccc(Cl)c(O)c3)n2)c1 is at least 90%.
Result: Condition not met

Q: Does the compound CCN1C(=O)/C(=c2\sc3n(c2=O)C2C(NN=3)N(CC)C(=O)N2CC)c2ccccc21 (centres undefined) have recorded growth that is 90% or more?
Result: Condition not met

Q: State whether the measured growth reaches 90%, counting equality as reaching it, for CCCCCCCCCCCCCCCC(=O)O[C@@H]1[C@@H](O)[C@@H](O)C([C@H](NC(=O)[C@@H]2C[C@@H](CCC)CN2C)[C@H](C)Cl)O[C@@H]1SC (some centres undefined)
Result: Condition met

Q: Hi team, for CCN(CC)CCOc1ccccc1C , is the recorded growth at or above 90%?
Result: Condition met

---

Tested on: SNB-19 CNS
Assay: NCI-60 one-dose screen, 48 h (100 = growth as untreated, 0 = no growth, -100 = all killed)
Conditions: 10 µM unless noted
About 83,000 compounds went through this panel and 20% of them were active in at least one assay; those are over-represented in the sample as a whole.
Measurement Type: growth (%)
One number for each entry, in %.

Compound | Readout Unit | Result Number
N#C/C(=C\c1ccc(Br)cc1)n1nnc2c(F)cccc21 | % | 15
CCNC(=O)Oc1ccc(/C(=C(/C)Cc2ccc(OC)cc2)c2ccc(OCCN(CC)CC)cc2)cc1 | % | 74.5
[Cu+].[NH-][C@H]1C[N-]C(=O)[C@H]([C@H]2CCN=C(N)N2)[N-]C(=O)/C(=C\NC(N)=O)[N-]C(=O)[C@H](CNC(=O)C[C@@H](N)CCCN)[N-]C(=O)[C@H](CO)[N-]C1=O | % | 103
N#C/C(=N\Nc1ccc(Cl)cc1)C(=O)Nc1cc(-c2ccccc2)nn1-c1ccccc1 | % | 30.4
N#C/C(=C\c1ccccc1Cl)c1cc2ccccc2[nH]1 | % | 93.1
CCCCC1=C(Br)C(=O)c2nc(C)ccc2C1=O | % | 92.5
CCN(C(=O)N1CCN(c2cc3c(cc2F)c(=O)c(C(=O)O)cn3C2CC2)CC1)c1nc(-c2ccccc2)cs1 | % | 22.5
C/C(=C(\c1ccc(OCCN2CCOCC2)cc1)c1ccc(OC(=O)C2CCCCC2)cc1)c1ccc(Cl)cc1 | % | 100

Batch request: growth for each of the following compounds.
1. CCCCn1c(C(=O)c2c[nH]c3ccccc23)n[nH]c1=S
2. NC(=O)c1c(NC(=O)/C=C/c2cccs2)sc2c1CCC(=O)C2
3. COc1ccc(Oc2nc(Nc3ccc(N4CCOCC4)cc3)ncc2NC(=O)c2cc(OC)cc(OC)c2)cc1
4. Cc1cnc(C(=O)NNc2nc3sc4c(c3c(=O)[nH]2)C(C)CCC4)cn1 (centres undefined)
5. Nc1ccc(/C=N/Nc2ccnc3c(N)cccc23)c2cccnc12
6. COC(=O)[C@H]1Cc2c([nH]c3ccccc23)[C@@H](c2cccs2)N1

Result:
1. 100
2. 64.5
3. 87.4
4. 22.3
5. 21.8
6. 98.2

Quick request: growth for each listed item, please.
1. COc1ccc(/C=C/C(=O)c2cc3c(N)c(C(=O)Nc4ccccc4Cl)sc3nc2C)cc1
2. CN1C(=O)N(C)C2(c3ccccc3)N(CC(=O)Nc3ccccc3O)C(=O)NC12c1ccccc1 (centres undefined)
3. COc1cc(-c2nn(-c3cccc(NC(=O)CCN4CCN(C)CC4)c3)cc2-c2ccncc2)ccc1Cl
4. COC(=O)N/N=C/c1c[n+]([O-])c2ccccc2[n+]1[O-]
5. CCCCC#Cc1c(/C=C(\CCCC)SCC)n(C)c(=O)[nH]c1=O

Result:
[44.7, 100, 44, 104, 107]

---

Tested on: HCC-2998 colon
Test: NCI-60 one-dose screen, 48 h
Conditions: 10 µM unless noted
Compounds without any hit were thinned out: in the full panel of roughly 83,000, 20% have a hit. The source made the active and inactive calls. Rule for the calls: active = growth percent below 10; inactive = the rest.
Respond only with the outcome that fits, drawn from active, inactive

Take a look at these entries with their results.
Compound | Subject Of Test | Assigned Label
CCN1C(=O)/C(=c2\sc3n(c2=O)C2C(NN=3)N(CC)C(=O)N2CC)c2ccccc21 (stereo unspecified) | HCC-2998 colon | inactive
O=c1c2c([nH]c3ccccc13)CCCC2 | HCC-2998 colon | inactive
CCCCCCCCCCCCC[C@H](O)C[C@H](O)[C@H](C)N | HCC-2998 colon | inactive

Q: # outcome recorded in this test, key = COc1cc(N=Nc2ccc(O)c3ncccc23)c2ncccc2c1
Result: inactive

Q: What outcome does the record of this test show for CC/C(=C(/c1ccc(Cl)cc1)c1ccc(OCCN2CCOCC2)cc1)c1ccccc1 ?
Result: inactive

Q: Recorded test call requested for Nc1c(C(=O)Nc2ccncc2)sc2nc3c(cc12)CCCCCCCC3
Result: active
